Each recorded value in this set is attributed to ChEMBL document CHEMBL5665443.

# measured target: UniProtKB P29372
# Sequence (P29372 whole entry): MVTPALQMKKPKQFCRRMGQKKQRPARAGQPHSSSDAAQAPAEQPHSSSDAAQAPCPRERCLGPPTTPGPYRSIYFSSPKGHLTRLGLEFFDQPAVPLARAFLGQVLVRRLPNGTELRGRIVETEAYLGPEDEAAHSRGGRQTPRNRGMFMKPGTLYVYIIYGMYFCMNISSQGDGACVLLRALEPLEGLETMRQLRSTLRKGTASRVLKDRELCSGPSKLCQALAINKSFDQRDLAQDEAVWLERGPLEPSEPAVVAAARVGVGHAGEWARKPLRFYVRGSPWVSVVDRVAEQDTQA
# settings: Compound Concentration 10.0 uM, Hit No;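 further: enzyme assay where MPG cuts a quenched duplex DNA oligonucleotide probe, paired with APE1 for strand incision and turnover, read as fluorescence at 594 nm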
# Description: Inhibition of MPG by quantifying inhibition of MPG-mediated cleavage and dissociation of quenched duplex DNA oligonucleotides, measured as fluorescence at 594 nm. To generate a functional strand incision and increase turn-over this assay is coupled to APE1.

- compound: "O=c1cccc2n1C[C@@H]1CNC[C@H]2C1"
  inhibition, %: -3.1
- compound: "CC(/C=C1\\SC(=S)N(CCCC(=O)Nc2ccc(C(=O)O)c(O)c2)C1=O)=C\\c1ccccc1"
  inhibition, %: 34.2
- compound: "COc1ccc2[nH]cc(CCNC(C)=O)c2c1"
  inhibition, %: -3.95
- compound: "NCCc1c[nH]cn1"
  inhibition, %: -7.46
- compound: "CC(C)(C(=O)O)c1ccc(C(O)CCCN2CCC(C(O)(c3ccccc3)c3ccccc3)CC2)cc1 (stereo unspecified)"
  inhibition, %: -4.6
- compound: "CC[C@H](NC(=O)c1c(C)c(-c2ccccc2)nc2ccccc12)c1ccccc1"
  inhibition, %: 4.04
- compound: "O=C(NCC12CC3CC(CC(C3)C1)C2)c1ccccc1Cl"
  inhibition, %: 21.7
- compound: "COc1cc(OC)cc(C(=O)NNC(=O)Nc2cccc3ccccc23)c1"
  inhibition, %: 3.65
- compound: "O=S1(=O)c2cccc3cccc(c23)N1CCCN1CCN(c2ccc(F)cc2)CC1"
  inhibition, %: -8.54
- compound: "CN(C)C(=O)N[C@H]1CC[C@H](CCN2CCN(c3cccc(Cl)c3Cl)CC2)CC1"
  inhibition, %: -7.07
- compound: "Cc1ccccc1C#Cc1ccc(CCC(=O)O)cc1"
  inhibition, %: 10.7
